- Target or test system: P-gp (Homo sapiens, UniProt P08183)
- Construct: host or cells: LLC-PK1 (porcine kidney cells)
- Sequence (P08183 whole entry): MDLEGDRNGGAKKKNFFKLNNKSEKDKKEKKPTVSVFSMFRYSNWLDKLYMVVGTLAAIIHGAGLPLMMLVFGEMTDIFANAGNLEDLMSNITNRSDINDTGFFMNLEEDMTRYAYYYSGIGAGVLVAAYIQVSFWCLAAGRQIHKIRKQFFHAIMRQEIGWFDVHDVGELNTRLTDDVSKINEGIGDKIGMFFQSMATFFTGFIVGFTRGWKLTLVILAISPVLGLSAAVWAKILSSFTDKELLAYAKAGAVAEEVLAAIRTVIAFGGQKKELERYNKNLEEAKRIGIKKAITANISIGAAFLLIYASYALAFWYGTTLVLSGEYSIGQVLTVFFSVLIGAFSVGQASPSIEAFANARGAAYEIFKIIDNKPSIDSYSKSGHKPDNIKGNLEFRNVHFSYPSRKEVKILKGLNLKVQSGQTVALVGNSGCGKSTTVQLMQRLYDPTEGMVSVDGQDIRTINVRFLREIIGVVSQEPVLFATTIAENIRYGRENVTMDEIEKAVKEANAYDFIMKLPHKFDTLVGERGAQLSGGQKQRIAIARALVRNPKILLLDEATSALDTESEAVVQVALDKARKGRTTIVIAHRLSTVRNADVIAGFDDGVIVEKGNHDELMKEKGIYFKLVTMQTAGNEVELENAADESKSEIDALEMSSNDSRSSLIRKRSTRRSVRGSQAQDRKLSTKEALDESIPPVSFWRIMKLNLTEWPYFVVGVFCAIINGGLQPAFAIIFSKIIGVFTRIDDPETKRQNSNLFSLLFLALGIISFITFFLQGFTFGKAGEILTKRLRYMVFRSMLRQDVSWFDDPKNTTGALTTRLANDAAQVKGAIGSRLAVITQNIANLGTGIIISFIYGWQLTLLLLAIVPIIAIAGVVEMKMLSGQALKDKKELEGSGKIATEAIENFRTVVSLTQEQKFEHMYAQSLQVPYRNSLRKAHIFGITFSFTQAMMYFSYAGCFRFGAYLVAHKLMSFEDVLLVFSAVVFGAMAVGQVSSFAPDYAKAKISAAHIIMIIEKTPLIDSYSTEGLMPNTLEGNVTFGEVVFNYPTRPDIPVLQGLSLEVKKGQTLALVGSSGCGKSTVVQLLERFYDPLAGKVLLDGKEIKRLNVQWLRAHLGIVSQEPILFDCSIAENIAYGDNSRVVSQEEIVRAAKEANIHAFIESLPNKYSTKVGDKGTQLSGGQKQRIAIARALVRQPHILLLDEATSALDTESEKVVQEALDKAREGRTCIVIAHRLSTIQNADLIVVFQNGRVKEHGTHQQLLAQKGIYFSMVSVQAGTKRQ
- Assay remarks: Permeability in LLC-PK1-P-gp cells
- Assay type: in vitro ADME
- Experimental setup: pig, pH 7.4; 4 μM, LLC-PK1-P-gp, Control
Measured parameter: Papp B→A at 1 h, 4 µM (×10⁻⁶ cm/s)

1: Cc1cccc(CO)c1CNc1cc(C(=O)N2CCC2)cn2c(C)c(C)nc12 [M1]
2: Cc1cccc(C)c1CNc1cc(C(=O)N2CCC2)cn2c(C)c(C)nc12 [JP-1366]
IN: // which entry reports the smaller Papp B→A at 1 h, 4 µM, 1 or 2 ? Please respond with the label that marks your chosen entry.
OUT: 2

====

- Assay remarks: Metabolic stability of JP-1366 in rat hepatocytes
- Format: in vitro ADME
- Experimental setup: rat, cryopreserved rat hepatocytes
Measured parameter: half-life at 1 µM (min)
Numbers only; they are read as min.

Reported half-life at 1 µM of Cc1cccc(C)c1CNc1cc(C(=O)N2CCC2)cn2c(C)c(C)nc12 : 47.1

====

- Target or test system: P-gp (Homo sapiens, UniProt P08183)
- Construct: host or cells: LLC-PK1 (porcine kidney cells)
- Assay remarks: Permeability in LLC-PK1-P-gp cells
- Assay type: in vitro ADME
- Experimental setup: pig, pH 7.4, with CsA 20 μM; 4 μM, LLC-PK1-P-gp, CsA 20 μM; read-out: ER
Measured parameter: efflux ratio at 1 h, 4 µM
Write no unit; give the number alone.

efflux ratio at 1 h, 4 µM in this record for Cc1cccc(CO)c1CNc1cc(C(=O)N2CCC2)cn2c(C)c(C)nc12 [M1] : 3.4

====

- Assay remarks: Metabolic stability of JP-1366 in human hepatocytes
- Type: in vitro ADME
- Experimental setup: human, cryopreserved human hepatocytes
Measured parameter: half-life at 1 µM (h)
The response must be a number in h with no trailing unit.

# half-life at 1 µM (molecule: Cc1cccc(C)c1CNc1cc(C(=O)N2CCC2)cn2c(C)c(C)nc12 ) is 1.06

====

- Assay remarks: Metabolic stability of JP-1366 in rat hepatocytes
- Format: in vitro ADME
- Experimental setup: cryopreserved rat hepatocytes; rat hepatocytes, scaled with physiological parameters
Measured parameter: CLint scaled at 1 µM (mL/min/kg)
The figure you give is taken to be in mL/min/kg; do not add the unit.

Record Cc1cccc(C)c1CNc1cc(C(=O)N2CCC2)cn2c(C)c(C)nc12 . Reported CLint scaled at 1 µM: 138

====

- Target or test system: BCRP (Homo sapiens)
- Construct: host or cells: LLC-PK1 (porcine kidney cells)
- Sequence (Q9UNQ0 whole entry, species assumed): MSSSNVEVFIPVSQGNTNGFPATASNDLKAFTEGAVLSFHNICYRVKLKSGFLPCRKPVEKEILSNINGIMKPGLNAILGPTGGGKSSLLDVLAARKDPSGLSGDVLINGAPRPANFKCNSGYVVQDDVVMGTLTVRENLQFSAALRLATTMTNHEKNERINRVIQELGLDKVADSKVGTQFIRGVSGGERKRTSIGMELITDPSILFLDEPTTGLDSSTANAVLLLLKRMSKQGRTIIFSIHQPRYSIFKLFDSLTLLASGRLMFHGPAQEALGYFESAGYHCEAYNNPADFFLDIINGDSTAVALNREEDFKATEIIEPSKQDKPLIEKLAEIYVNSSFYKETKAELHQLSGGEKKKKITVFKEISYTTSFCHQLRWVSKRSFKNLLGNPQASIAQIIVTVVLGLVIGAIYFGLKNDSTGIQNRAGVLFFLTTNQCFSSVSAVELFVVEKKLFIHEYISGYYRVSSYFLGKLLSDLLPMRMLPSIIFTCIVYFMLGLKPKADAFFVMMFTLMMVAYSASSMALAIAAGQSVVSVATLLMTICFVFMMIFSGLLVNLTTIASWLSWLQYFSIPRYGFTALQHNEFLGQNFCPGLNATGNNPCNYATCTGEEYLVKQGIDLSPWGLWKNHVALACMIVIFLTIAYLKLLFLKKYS
- Assay remarks: Permeability in LLC-PK1-BCRP cells
- Format: in vitro ADME
- Experimental setup: pig, pH 7.4; 4 μM, LLC-PK1-BCRP, Control
- Protocol: LLC-PK1-P-gp or BCRP cells were seeded on collagen-coated 24-transwell membranes at a density of 2.5 × 10^5 cells/mL and maintained at 37 °C in a humidified atmosphere with 5% CO2/95% air for 5 days in Medium 199 supplemented with 10% […], 50 μg/mL of gentamycin, and 50 μg/mL of hygromycin. […] The permeability (Papp) was calculated from the following equation [23, 24]: Papp(cm/s)=transport ratenmol/s/JP−1366 or M1 concentration (μM)×surface area of membrane (cm^2)
Measured parameter: Papp B→A at 1 h, 4 µM (×10⁻⁶ cm/s)

1: Cc1cccc(CO)c1CNc1cc(C(=O)N2CCC2)cn2c(C)c(C)nc12
2: Cc1cccc(C)c1CNc1cc(C(=O)N2CCC2)cn2c(C)c(C)nc12
IN: Between the entries labeled 1 and 2 , whose measured Papp B→A at 1 h, 4 µM is lower? # answer = label of selected item
OUT: 2
